- Measurement Description: Pharmacokinetics in mice, single dose i.v. injection or oral gavage (FIG. 5)
- Assay type: in vivo
- Condition Info: mouse, plasma, iv; mice; 1 mg/kg i.v.; read-out: AUCinf, i.v.
Observed Property: AUC(0-inf) (ng·h/mL)

{"Molecule": "CNc1ccc(C(=O)Nc2ccc(N(C)C)nn2)c(NC2CC3(CC(NC(=O)CN4CCN(c5ccc(Nc6ncc7c(C)c(C(C)=O)c(=O)n(C8CCCC8)c7n6)nc5)CC4)C3)C2)n1 (stereo not shown) [CPD-39]", "Reported Result": 1030}

---

- Assay Target: CDK4 (Homo sapiens, UniProt P11802+Q16531)
- Sequence (P11802 whole entry): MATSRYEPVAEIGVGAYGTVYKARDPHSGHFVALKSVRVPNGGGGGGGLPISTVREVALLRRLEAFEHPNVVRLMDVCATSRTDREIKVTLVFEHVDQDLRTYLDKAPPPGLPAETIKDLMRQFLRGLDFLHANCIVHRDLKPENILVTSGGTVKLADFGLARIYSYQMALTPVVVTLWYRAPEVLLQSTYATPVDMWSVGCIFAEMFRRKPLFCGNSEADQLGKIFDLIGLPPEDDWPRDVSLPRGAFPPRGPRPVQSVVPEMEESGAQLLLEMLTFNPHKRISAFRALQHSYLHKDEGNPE
- Sequence (P24385 whole entry partner): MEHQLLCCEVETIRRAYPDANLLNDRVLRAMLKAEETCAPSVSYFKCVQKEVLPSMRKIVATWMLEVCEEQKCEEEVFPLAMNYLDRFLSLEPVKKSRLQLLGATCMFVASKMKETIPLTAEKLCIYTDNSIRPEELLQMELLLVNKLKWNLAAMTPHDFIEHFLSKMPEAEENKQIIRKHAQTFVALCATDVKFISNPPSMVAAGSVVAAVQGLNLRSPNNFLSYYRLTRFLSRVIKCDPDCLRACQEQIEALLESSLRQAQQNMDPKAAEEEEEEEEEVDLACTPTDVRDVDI
- Sequence (Q16531 2-1140 limits assumed): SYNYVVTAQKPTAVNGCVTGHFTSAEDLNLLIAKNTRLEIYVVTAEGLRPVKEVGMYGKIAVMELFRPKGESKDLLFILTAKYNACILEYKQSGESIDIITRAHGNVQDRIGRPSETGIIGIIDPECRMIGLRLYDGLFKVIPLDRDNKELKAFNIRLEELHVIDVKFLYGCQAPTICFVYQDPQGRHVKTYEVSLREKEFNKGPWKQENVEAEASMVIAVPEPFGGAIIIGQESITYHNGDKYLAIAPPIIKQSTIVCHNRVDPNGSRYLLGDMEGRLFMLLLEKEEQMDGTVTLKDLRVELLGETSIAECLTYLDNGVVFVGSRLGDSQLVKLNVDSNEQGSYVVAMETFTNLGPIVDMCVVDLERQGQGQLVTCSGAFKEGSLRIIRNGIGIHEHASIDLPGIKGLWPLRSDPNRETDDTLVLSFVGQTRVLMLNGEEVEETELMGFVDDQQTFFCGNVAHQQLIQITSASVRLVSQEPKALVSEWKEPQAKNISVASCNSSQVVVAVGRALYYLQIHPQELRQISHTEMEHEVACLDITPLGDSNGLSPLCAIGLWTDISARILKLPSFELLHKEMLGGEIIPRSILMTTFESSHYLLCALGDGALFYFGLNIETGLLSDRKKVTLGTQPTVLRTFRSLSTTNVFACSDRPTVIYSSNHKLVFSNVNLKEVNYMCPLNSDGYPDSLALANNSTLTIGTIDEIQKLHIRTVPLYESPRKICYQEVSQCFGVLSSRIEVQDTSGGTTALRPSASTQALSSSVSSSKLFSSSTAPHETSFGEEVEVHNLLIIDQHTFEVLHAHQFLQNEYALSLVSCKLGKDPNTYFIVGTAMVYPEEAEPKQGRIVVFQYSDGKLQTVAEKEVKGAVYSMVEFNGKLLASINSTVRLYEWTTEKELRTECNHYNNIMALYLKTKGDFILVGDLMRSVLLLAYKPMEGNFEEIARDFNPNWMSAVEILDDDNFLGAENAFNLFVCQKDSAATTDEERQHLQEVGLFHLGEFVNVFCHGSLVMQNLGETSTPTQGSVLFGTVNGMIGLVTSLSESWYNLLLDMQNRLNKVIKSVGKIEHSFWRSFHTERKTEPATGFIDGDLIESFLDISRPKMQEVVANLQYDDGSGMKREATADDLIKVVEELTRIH
- Measurement Description: HiBiT detection of HiBiT-tagged CDK4 protein level in MCF7 cells, 16 hours (Table 8)
- Format: cell-based
- Parameters: expressed in transfected cells; host or cells: MCF7
- Condition Info: 10 nM, MCF7 cells stably expressing HiBiT tagged target proteins, read-out: % CDK4 Relative Level (10 nM)
Listed compounds paired with reported activity at 0.01 µM

{"Compound": "CNc1ccc(C(=O)Nc2ccc(N(C)C)nn2)c(NCCCCCC(=O)N2CCN(Cc3ccc(Nc4ncc(F)c(-c5cc(F)c6nc(C)n(C(C)C)c6c5)n4)nc3)CC2)n1 [CPD-603]", "activity at 0.01 µM": "55 to 85%"}
{"Compound": "CNc1ccc(C(=O)Nc2ccc(N(C)C)nn2)c(NCCCCNC(=O)CN2CCN(Cc3ccc(Nc4ncc(F)c(-c5cc(F)c6nc(C)n(C(C)C)c6c5)n4)nc3)CC2)n1 [CPD-610]", "activity at 0.01 µM": "> 85%"}
{"Compound": "CC(=O)c1c(C)c2cnc(Nc3ccc(CN4CCN(CC(=O)N5CCC6(CCC(Nc7nc(C(C)C)ccc7C(=O)Nc7ccc(N(C)C)nn7)C6)C5)CC4)cn3)nc2n(C2CCCC2)c1=O (centres unmarked) [CPD-583]", "activity at 0.01 µM": "55 to 85%"}
{"Compound": "CNc1ccc(C(=O)Nc2ccc(N(C)C)nn2)c(NCCCCCCC(=O)N2CCN(Cc3ccc(Nc4ncc(F)c(-c5cc(F)c6nc(C)n(C(C)C)c6c5)n4)nc3)CC2)n1 [CPD-604]", "activity at 0.01 µM": "> 85%"}
{"Compound": "CNc1ccc(C(=O)Nc2ccc(N(C)C)nn2)c(NCCC(=O)NC2CCC(Nc3ncc4ccc(=O)n(C5CCCC5)c4n3)CC2)n1 (centres unmarked) [CPD-666]", "activity at 0.01 µM": "> 85%"}

Cited source: patent US20260297081A1
